Target: EGFR on the surface of human tumour cells (A431, H292) (human, UniProt P00533 25-1210)
Test: cell-based or functional assay
Quantity Measured: IC50, EGF-induced ERK phosphorylation, A431 cells, In Cell Western (nM)
Kindly answer with a numeric value in nM, unit omitted.

Examples from the recorded data:
E90-GS10-I1 pegylated (designed binder, Cys of the C-terminal Cys tail conjugated to 40 kDa branched PEG) E/I tandem 10Fn3 chain: MGVSDVPRDLEVVAATPTSLLISWYWEGLPYQYYRITYGETGGNSPVQEFTVPRDVNTATISGLKPGVDYTITVYAVTDWYNPDTHEYIYHTIPISINYRTEIDKGSGSGSGSGSGSGSGSGSGSVSDVPRDLEVVAATPTSLLISWSARLKVARYYRITYGETGGNSPVQEFTVPKNVYTATISGLKPGVDYTITVYAVTRFRDYQPISINYRTEIDKPCQHHHHHH | 63
I1-GS10-E4 pegylated, His-tagged (designed binder, 40 kDa branched PEG on the Cys of the C-terminal Cys tail) MGVSDVPRDLEVVAATPTSLLISWSARLKVARYYRITYGETGGNSPVQEFTVPKNVYTATISGLKPGVDYTITVYAVTRFRDYQPISINYRTEIDKGSGSGSGSGSGSGSGSGSGSVSDVPRDLEVVAATPTSLLISWHERDGSRQYYRITYGETGGNSPVQEFTVPGGVRTATISGLKPGVDYTITVYAVTDYFNPTTHEYIYQTTPISINYRTEIDKPCQHHHHHH | 13

// query Which IC50, EGF-induced ERK phosphorylation, A431 cells, In Cell Western is listed for E105-GS10-I1 pegylated (designed binder, Cys of the C-terminal Cys tail conjugated to 40 kDa branched PEG) E/I tandem 10Fn3 chain: MGVSDVPRDLEVVAATPTSLLISWDAPTSRYQYYRITYGETGGNSPVQEFTVPGGLSTATISGLKPGVDYTITVYAVTDYKPHADGPHTYHESPISINYRTEIDKGSGSGSGSGSGSGSGSGSGSVSDVPRDLEVVAATPTSLLISWSARLKVARYYRITYGETGGNSPVQEFTVPKNVYTATISGLKPGVDYTITVYAVTRFRDYQPISINYRTEIDKPCQHHHHHH ?
// result 61
